System: Botrytis cinerea
assay.comment: in vitro inhibition assay for volatile antimicrobial compounds (12-well PDA plates)
Assay type: cell-based
test.context: 0.08 mg per disk; 14 days at 4° C.
property.measured: Botrytis inhibition % (in vitro) (%)
Answers are plain numbers, in %.

Take a look at these entries with their results.
compound.string	Botrytis inhibition % (in vitro) / %
OB1OCc2cc(C(F)(F)F)ccc21	55
Fc1ccc2c(c1)COB2c1ccsc1	100
Fc1ccc2c(c1)COB2c1ccccc1	100
COc1cccc2c1B(O)OC2	5
Fc1ccc2c(c1)COB2/C=C/c1ccccc1	100

State recorded Botrytis inhibition % (in vitro) for all listed compounds.
1. FC(F)(F)c1ccc2c(c1)COB2c1ccccc1
2. FC(F)(F)c1ccc2c(c1)COB2c1ccsc1
3. OB1OCCc2ccccc21

Result:
1: 40; 2: 43; 3: 8

====

Test system: Botrytis cinerea
assay.comment: in vitro inhibition assay for volatile antimicrobial compounds (12-well PDA plates)
Format: cell-based
test.context: 0.04 mg per disk; 14 days at 4° C.
Please respond with reported Botrytis inhibition % (in vitro) for every item in the list.
One number for each entry, in %.

compound.string	reading.unit	Botrytis inhibition % (in vitro)
FC(F)(F)c1ccc2c(c1)COB2c1ccccc1	%	18

State recorded Botrytis inhibition % (in vitro) for all listed compounds.
1. Fc1ccc2c(c1)COB2/C=C/c1ccccc1
2. COc1cccc2c1B(O)OC2
3. Fc1ccc2c(c1)COB2c1ccccc1
4. FC(F)(F)c1ccc2c(c1)COB2c1ccsc1
5. Fc1ccc2c(c1)COB2c1ccsc1
6. OB1OCCc2ccccc21
7. OB1OCc2cc(C(F)(F)F)ccc21

Result:
1: 79; 2: 0; 3: 100; 4: 13; 5: 100; 6: 5; 7: 38

====

Please respond with reported Botrytis inhibition % (in vitro) for every item in the list.
Test system: Botrytis cinerea
assay.comment: in vitro inhibition assay for volatile antimicrobial compounds (12-well PDA plates)
Assay type: cell-based
test.context: 0.001 mg per disk; 14 days at 4° C.
Numbers only, in %.

Take a look at these entries with their results.
compound.string	Botrytis inhibition % (in vitro) [%]
Fc1ccc2c(c1)COB2c1ccccc1	15
OB1OCc2cc(C(F)(F)F)ccc21	0
Fc1ccc2c(c1)COB2c1ccsc1	0
Fc1ccc2c(c1)COB2/C=C/c1ccccc1	13
COc1cccc2c1B(O)OC2	0

State recorded Botrytis inhibition % (in vitro) for all listed molecules.
1. FC(F)(F)c1ccc2c(c1)COB2c1ccccc1
2. OB1OCCc2ccccc21

Result:
0
0

Request: Request the reported Botrytis inhibition % (in vitro) associated with `FC(F)(F)c1ccc2c(c1)COB2c1ccsc1`
Result: 0

====

Test system: Botrytis cinerea
assay.comment: in vitro inhibition assay for volatile antimicrobial compounds (12-well PDA plates)
Format: cell-based
test.context: 0.023 mg per disk; 14 days at 4° C.
property.measured: Botrytis inhibition % (in vitro) (%)
Numbers only, in %.

Take a look at these entries with their results.
compound.string	Botrytis inhibition % (in vitro) [%]
Fc1ccc2c(c1)COB2/C=C/c1ccccc1	79
COc1cccc2c1B(O)OC2	0
Fc1ccc2c(c1)COB2c1ccsc1	80

State recorded Botrytis inhibition % (in vitro) for all listed molecules.
1. OB1OCCc2ccccc21
2. FC(F)(F)c1ccc2c(c1)COB2c1ccccc1
3. Fc1ccc2c(c1)COB2c1ccccc1
4. OB1OCc2cc(C(F)(F)F)ccc21
5. FC(F)(F)c1ccc2c(c1)COB2c1ccsc1

Result:
1: 0; 2: 10; 3: 100; 4: 18; 5: 3

Cited source for all entries: patent US9426996B2
